Target: T1, His-tagged CEACAM1 (human, UniProt P13688 35-428)
T1 construct: 45 kDa SPR analyte; also called CEACAM1-HIS; CEACAM1 analyte
T1 sequence: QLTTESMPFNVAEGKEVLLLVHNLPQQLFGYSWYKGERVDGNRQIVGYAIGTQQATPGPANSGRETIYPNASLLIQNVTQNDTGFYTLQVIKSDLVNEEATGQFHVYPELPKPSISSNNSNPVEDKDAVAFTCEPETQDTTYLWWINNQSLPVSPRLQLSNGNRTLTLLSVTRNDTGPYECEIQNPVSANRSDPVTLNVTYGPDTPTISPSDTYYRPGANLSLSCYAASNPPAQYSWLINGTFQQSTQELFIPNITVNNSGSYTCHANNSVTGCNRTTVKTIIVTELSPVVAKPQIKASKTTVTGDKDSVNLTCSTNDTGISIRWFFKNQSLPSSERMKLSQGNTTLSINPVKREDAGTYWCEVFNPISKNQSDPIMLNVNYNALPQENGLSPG
Assay: SPR single-cycle, purified IgG captured
Please assign Not fulfilled whenever kon is at or above 100000 M⁻¹ s⁻¹, and Fulfilled whenever it is below.

## Task Is kon of 8H3_9B3/CP08E05 (antibody, IgG4, V domains shown, IgG4 (S241P), kappa) VH: EVQLLESGGGLVQPGGSLRLSCAASGFTFNAHAISWVRQAPGKGLEWVATISSGGTYTYYPDSVKGRFTISRDNSKNTLYLQMNSLKAEDTAMYYCARHDFDYFPYWFAHWGQGTLVTVSS VL: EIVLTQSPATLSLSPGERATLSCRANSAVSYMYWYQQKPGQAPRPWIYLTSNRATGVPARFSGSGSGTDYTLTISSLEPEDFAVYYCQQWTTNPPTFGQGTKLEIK strictly below 100000 M⁻¹ s⁻¹?
## Result Fulfilled

## Task Is kon of CP09C02/CP08F05 (antibody, IgG4, V domains shown, IgG4 (S241P), kappa) VH: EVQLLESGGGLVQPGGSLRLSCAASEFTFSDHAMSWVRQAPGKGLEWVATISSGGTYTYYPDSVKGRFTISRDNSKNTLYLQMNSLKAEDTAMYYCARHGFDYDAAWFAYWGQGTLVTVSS VL: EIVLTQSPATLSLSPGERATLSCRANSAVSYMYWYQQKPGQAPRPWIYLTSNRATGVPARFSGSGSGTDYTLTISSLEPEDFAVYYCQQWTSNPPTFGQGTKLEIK strictly below 100000 M⁻¹ s⁻¹?
## Result Not fulfilled

## Task Is kon of CP09B03/CP08E05 (antibody, IgG4, V domains shown, IgG4 (S241P), kappa) VH: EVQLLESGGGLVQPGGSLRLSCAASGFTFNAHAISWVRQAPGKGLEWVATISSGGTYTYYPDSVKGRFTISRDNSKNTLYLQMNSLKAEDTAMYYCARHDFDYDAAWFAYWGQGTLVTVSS VL: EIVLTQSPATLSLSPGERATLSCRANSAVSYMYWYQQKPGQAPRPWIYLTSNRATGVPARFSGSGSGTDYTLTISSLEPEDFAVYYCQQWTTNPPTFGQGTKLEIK strictly below 100000 M⁻¹ s⁻¹?
## Result Not fulfilled

## Task Is kon of CP08H03/CP08E05 (antibody, IgG4, V domains shown, IgG4 (S241P), kappa) VH: EVQLLESGGGLVQPGGSLRLSCAASGFIFSSHGMSWVRQAPGKGLEWVATISSGGTYTYYPDSVKGRFTISRDNSKNTLYLQMNSLKAEDTAMYYCARHDFDYFPYWFAHWGQGTLVTVSS VL: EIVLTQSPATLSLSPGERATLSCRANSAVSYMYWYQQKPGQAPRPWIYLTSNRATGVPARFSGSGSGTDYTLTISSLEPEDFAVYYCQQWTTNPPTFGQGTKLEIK strictly below 100000 M⁻¹ s⁻¹?
## Result Fulfilled

## Task Is kon of 8H3_9C2/CP08F05 (antibody, IgG4, V domains shown, IgG4 (S241P), kappa; also called 8H3_9C2/CPO08_F05) VH: EVQLLESGGGLVQPGGSLRLSCAASEFTFSDHAMSWVRQAPGKGLEWVATISSGGTYTYYPDSVKGRFTISRDNSKNTLYLQMNSLKAEDTAMYYCARHGFDYFPYWFAHWGQGTLVTVSS VL: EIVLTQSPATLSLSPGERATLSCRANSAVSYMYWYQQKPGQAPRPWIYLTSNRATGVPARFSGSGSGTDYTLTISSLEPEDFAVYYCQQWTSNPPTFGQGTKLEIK strictly below 100000 M⁻¹ s⁻¹?
## Result Fulfilled

Continuing:
## Task Is kon of CP08H03/CP08F05 (antibody, V domains shown, IgG4 (S241P), kappa) VH: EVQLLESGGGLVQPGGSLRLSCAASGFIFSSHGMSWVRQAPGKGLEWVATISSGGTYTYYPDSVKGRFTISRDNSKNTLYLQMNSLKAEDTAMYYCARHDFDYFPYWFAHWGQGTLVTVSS VL: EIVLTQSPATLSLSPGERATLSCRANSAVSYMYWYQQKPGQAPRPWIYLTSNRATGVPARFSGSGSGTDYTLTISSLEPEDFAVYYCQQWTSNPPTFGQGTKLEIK strictly below 100000 M⁻¹ s⁻¹?
## Result Fulfilled

## Task Is kon of CP08H03/Vκ8 S29A (antibody, IgG4, V domains shown, IgG4 (S241P), kappa; also called CP08_H03/Parent VL; CP08_H03/Parental) VH: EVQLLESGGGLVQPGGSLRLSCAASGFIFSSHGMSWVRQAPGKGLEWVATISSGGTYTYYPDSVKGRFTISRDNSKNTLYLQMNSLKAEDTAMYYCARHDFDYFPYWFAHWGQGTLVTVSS VL: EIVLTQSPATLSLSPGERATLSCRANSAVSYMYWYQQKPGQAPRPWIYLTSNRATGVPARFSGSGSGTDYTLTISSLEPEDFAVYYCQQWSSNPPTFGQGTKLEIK strictly below 100000 M⁻¹ s⁻¹?
## Result Fulfilled

## Task Is kon of 8H3_9B3/CP08F05 (antibody, IgG4, V domains shown, IgG4 (S241P), kappa) VH: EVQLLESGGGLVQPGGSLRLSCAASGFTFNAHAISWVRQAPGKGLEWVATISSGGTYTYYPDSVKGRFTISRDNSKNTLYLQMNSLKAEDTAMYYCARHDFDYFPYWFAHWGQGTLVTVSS VL: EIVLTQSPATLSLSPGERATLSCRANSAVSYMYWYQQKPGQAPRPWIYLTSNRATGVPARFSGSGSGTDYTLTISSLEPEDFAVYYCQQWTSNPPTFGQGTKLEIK strictly below 100000 M⁻¹ s⁻¹?
## Result Fulfilled

## Task Is kon of 8H3_9B3/Vκ8 S29A (antibody, IgG4, V domains shown, IgG4 (S241P), kappa) VH: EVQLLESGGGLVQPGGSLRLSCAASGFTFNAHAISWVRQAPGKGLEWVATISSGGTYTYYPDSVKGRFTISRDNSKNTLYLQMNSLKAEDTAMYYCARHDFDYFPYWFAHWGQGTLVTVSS VL: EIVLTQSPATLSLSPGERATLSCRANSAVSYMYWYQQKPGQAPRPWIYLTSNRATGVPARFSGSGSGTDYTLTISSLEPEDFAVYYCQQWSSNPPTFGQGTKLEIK strictly below 100000 M⁻¹ s⁻¹?
## Result Fulfilled

## Task Is kon of 9B3_9E5/CP08E05 (antibody, IgG4, V domains shown, IgG4 (S241P), kappa) VH: EVQLLESGGGLVQPGGSLRLSCAASGFTFNAHAISWVRQAPGKGLEWVATISSGGTYTYYPDSVKGRFTISRDNSKNTLYLQMNSLKAEDTAMYYCARHGFDYDAAWFAYWGQGTLVTVSS VL: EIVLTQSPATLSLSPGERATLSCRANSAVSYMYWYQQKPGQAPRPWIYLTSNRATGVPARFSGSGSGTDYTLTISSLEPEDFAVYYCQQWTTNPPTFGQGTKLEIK strictly below 100000 M⁻¹ s⁻¹?
## Result Not fulfilled
